This collection of values is drawn from PubChem BioAssay (NCI).

# System: SNB-19 CNS
# measurementProtocol: NCI tumour cell line growth inhibition, 48 h
// values below are reported TGI
measuredAttribute: TGI

>>> testresult("CCN(CCN(CC)C(=O)NC)C(=O)NC")
"> 100 µM"
>>> testresult("O=C(O)CCCc1cc2c(s1)-c1cccc3cccc-2c13")
"> 100 µM"
>>> testresult("C=C1CCC2(C(C)=O)COC1(C)O2 (stereo not given)")
"> 100 µM"
>>> testresult("N/C(=N/N=C/c1cccc(F)c1)NO")
"> 100 µM"
>>> testresult("O=C1CCCCCCCCCCOC(=O)CCCCCCCCCCO1")
"> 100 µM"
>>> testresult("Cc1ccc(S(=O)(=O)NCCCSCCO)cc1")
"> 100 µM"
>>> testresult("COC(=O)[C@@H](NC(=O)c1ccc(CNC(=O)/C(C)=C/c2ccccc2)cc1)C(C)C")
"> 100 µM"
>>> testresult("O=C1C(c2c(O)[nH]c3ccc(I)cc23)=Nc2ccccc21")
"42.8 µM"
>>> testresult("Oc1[nH]c2ccccc2c1/C=c1/ccc2c(c1)N=C(c1cc(F)cc(F)c1)N=2")
"28 µM"
>>> testresult("C=CCCCC(O)c1ccc(C(O)c2cnc3ccccc3c2)o1 (stereo not given)")
"> 100 µM"
